tested on: HL-60(TB) leukemia; assay: NCI tumour cell line growth inhibition, 48 h
Give TGI for every item shown.

Kindly indicate its recorded TGI. Item: CSc1ccc2c(cc1=O)C(NC(=O)c1ccccc1)CCc1cc(O)c(O)c(O)c1-2 (stereo unspecified)
38.2 µM

Kindly indicate its recorded TGI. Item: C=CCc1cccc2cc(C(=O)Nc3ccc(C)cc3)c(=N)oc12
> 100 µM

Kindly indicate its recorded TGI. Item: COc1ccc2c(=O)c3c([nH]c2c1)OCC3=O
> 100 µM

Kindly indicate its recorded TGI. Item: O=C(CC1(O)C(=O)Nc2ccc([N+](=O)[O-])cc21)c1ccncc1 (stereo unspecified)
56.5 µM

Kindly indicate its recorded TGI. Item: COc1ccccc1/C=N/Nc1nnc2c3ccccc3c3ncccc3c2n1
> 100 µM

Kindly indicate its recorded TGI. Item: CCOC(=O)C(NC(=O)c1cccc(Cl)c1)(Nc1ccc(S(=O)(=O)Nc2cc(C)nc(C)n2)cc1)C(F)(F)F (stereo unspecified)
> 100 µM

----------
system: A498 renal; test: NCI tumour cell line growth inhibition, 48 h
measured_parameter: TGI

Kindly indicate its recorded TGI. Item: NNC(=O)CC(=O)Nc1ccc(S(=O)(=O)c2ccc(NC(=O)CC(=O)NN)cc2)cc1
> 100 µM

Kindly indicate its recorded TGI. Item: CO/N=C(/C(=O)Nc1c[n+](CC(=O)[O-])cs1)c1csc(N)n1
> 100 µM

Kindly indicate its recorded TGI. Item: O=C(c1ccccc1)C1OC1C(=O)c1ccccc1 (stereo not given)
> 100 µM

Kindly indicate its recorded TGI. Item: COn1oc(=O)c2ccccc21
> 100 µM

Kindly indicate its recorded TGI. Item: Cc1ccc(N=C2OP(=O)(Nc3ccc(C)cc3)Oc3ccccc32)cc1 (stereo not given)
> 100 µM

Kindly indicate its recorded TGI. Item: O=C1c2cc3c(cc2-c2c1c1ccc(F)cc1c(=O)n2C[C@H](O)[C@H](O)[C@H](O)CO)OCO3
0.327 µM

Kindly indicate its recorded TGI. Item: CC1OC(CC(=O)O)Cc2c1c(O)c1c(O)cc(-c3cc(=O)c4c(=O)c5c(c(=O)c=4c3=O)CC(CC(=O)O)OC5C)c(O)c1c2O (stereo not given)
58.9 µM

Kindly indicate its recorded TGI. Item: O=C(CCCC(=O)N/N=C/c1cc(Cl)ccc1O)N/N=C\c1cc(Cl)ccc1O
> 100 µM

Kindly indicate its recorded TGI. Item: COC(=O)c1sc2c(=O)c(C(=O)OC)c(C(=O)OC)sc2c(=O)c1C(=O)OC
> 100 µM

Kindly indicate its recorded TGI. Item: CC(=O)Nc1ccc(OC(C)=O)cc1
0.0488 µM

Kindly indicate its recorded TGI. Item: CC(C)(CCl)NC(=O)c1cccc(C(=O)NC(C)(C)CCl)n1
> 100 µM

Kindly indicate its recorded TGI. Item: Cn1ccc(=NS(=O)(=O)c2ccccc2)cc1
> 100 µM

Kindly indicate its recorded TGI. Item: CC(C)CNCCc1ccccn1
> 100 µM

Kindly indicate its recorded TGI. Item: C/C(CC(C)(C)N1CC1)=N\NC(=O)Nc1cccc2ccccc12
9.5 µM

Kindly indicate its recorded TGI. Item: CC1=C2[C@@H](CC1)[C@]1(C)O[C@@](C(C)C)(C[C@H]1OC(=O)CO)[C@H]2OC(=O)CCCc1ccccc1
19.6 µM

----------
system: OVCAR-4 ovarian; assay: NCI tumour cell line growth inhibition, 48 h
measured_parameter: TGI

Kindly indicate its recorded TGI. Item: CCOC(=O)[C@@H](NC(=O)OC(C)(C)C)[C@@H](O)C(=O)OCC
> 100 µM

Kindly indicate its recorded TGI. Item: O=[N+]([O-])c1cc(I)cc(/C=N/NS(=O)(=O)c2ccc(Cl)cc2)c1O
85.6 µM

Kindly indicate its recorded TGI. Item: O=C(CC1(O)C(=O)Nc2ccc([N+](=O)[O-])cc21)c1ccncc1 (stereo not drawn)
40.9 µM

Kindly indicate its recorded TGI. Item: Cc1c[nH]c(=O)n(Cc2nnc(CCC(=O)c3nc4ccccc4[nH]3)o2)c1=O
> 100 µM

Kindly indicate its recorded TGI. Item: O=C(CCCC(=O)N/N=C/c1cc(Cl)ccc1O)N/N=C\c1cc(Cl)ccc1O
> 100 µM

Kindly indicate its recorded TGI. Item: CN(C)/C=C/c1c2c(nc3ccccc13)C(=O)c1cccnc1C2=O
4.01 µM

Kindly indicate its recorded TGI. Item: C1C[OH+]CCNCC[OH+]CC[OH+]CCN1.N.[Cl-].[Pt+4]
> 100 µM

Kindly indicate its recorded TGI. Item: CN(/N=C/c1ccccc1O)c1ccc2ccccc2n1
67.7 µM

Kindly indicate its recorded TGI. Item: C#CCOC(=O)/C=C/C(=O)Oc1ccc2c(C)cc(=O)oc2c1
> 100 µM

Kindly indicate its recorded TGI. Item: Cc1nc(C)c(N2CCN(S(N)(=O)=O)CC2)c(=O)[nH]1
> 100 µM

Kindly indicate its recorded TGI. Item: CCCCC(OC(=O)c1ccc(N)cc1)C(=O)Nc1nc(CC(=O)OCC)cs1 (stereo not drawn)
> 100 µM

Kindly indicate its recorded TGI. Item: N#Cc1ccccc1NC(=O)C(=O)C(C(=O)c1ccncc1)C1OC(=O)c2ccccc21 (stereo not drawn)
> 100 µM

Kindly indicate its recorded TGI. Item: CCCCCCCC(=O)OCC1OC(n2cc(F)c(=O)[nH]c2=O)C(N)C(O)C1O (stereo not drawn)
> 100 µM

Kindly indicate its recorded TGI. Item: NNC(=O)CC(=O)Nc1ccc(S(=O)(=O)c2ccc(NC(=O)CC(=O)NN)cc2)cc1
> 100 µM

Kindly indicate its recorded TGI. Item: COc1ccc(N/N=C/C2=CC(C)(C)C(C#N)(C#N)C(O)=C2C#N)cc1
> 100 µM

Kindly indicate its recorded TGI. Item: CC1(O)C2(c3ccccc3)CCC[N+]1(C)CC2 (stereo not drawn)
> 100 µM

Kindly indicate its recorded TGI. Item: CCc1[nH]nc(C(N)=O)c1N=NN(C)C
> 100 µM

Kindly indicate its recorded TGI. Item: Cc1ccc(N=C2OP(=O)(Nc3ccc(C)cc3)Oc3ccccc32)cc1 (stereo not drawn)
> 100 µM

Kindly indicate its recorded TGI. Item: C=CCc1cccc2cc(C(=O)Nc3ccc(C)cc3)c(=N)oc12
> 100 µM

Kindly indicate its recorded TGI. Item: O=C(C=Nc1ccccc1S)c1ccco1
26.4 µM

Kindly indicate its recorded TGI. Item: COc1c(C)c(OC)c(C(=O)CC(C)C)c(OC)c1C
> 100 µM

Kindly indicate its recorded TGI. Item: CC(C)c1cccc(C(C)C)c1NC(=O)C(=O)C1CCC2=C(Sc3ccccc3N2)C1=O (stereo not drawn)
> 100 µM

Kindly indicate its recorded TGI. Item: CCCCc1nc(C)oc1C(C)C
> 100 µM
